- Test: CCTE_Shafer_MEA_dev_mutual_information_norm: CCTE's Neural Network Formation Assay for Mutual Information Normalization, Shafer Lab (AID 2284091)
Active and inactive are the calls of the source. How the source made its calls: active means hit-call score of the fitted dose curve at least 0.9, where 1 is the maximum; inactive means score below 0.9.
One label from this list, please: active, inactive

For orientation, consider the following solved cases.
- Compound: "C=C(C)CN(CC)c1c([N+](=O)[O-])cc(C(F)(F)F)cc1[N+](=O)[O-]"
  Discrete Label: "active"
- Compound: "CCN(CC)c1nc(C)cc(OP(=S)(OC)OC)n1"
  Discrete Label: "active"
- Compound: "COP(=S)(OC)Oc1ccc([N+](=O)[O-])c(C)c1"
  Discrete Label: "inactive"

Q. Dear all, I need the recorded test outcome for COP(=O)(OC)O/C(C)=C/C(=O)N(C)C , thank you.
A. inactive

Q. Please share the test call associated with O=C1C2CC=CCC2C(=O)N1SC(Cl)(Cl)Cl (stereo not given) .
A. inactive

Q. Dear all, I need the recorded test outcome for CS(=O)(=O)c1cc(C(F)(F)F)ccc1C(=O)c1cnoc1C1CC1 , thank you.
A. inactive

Q. Dear all, I need the recorded test outcome for CCCN(CC)CC1COC2(CCC(C(C)(C)C)CC2)O1 (stereo not given) , thank you.
A. active

Q. Assay result, entry CCOC(=O)C(C)OC(=O)c1cc(Oc2ccc(C(F)(F)F)cc2Cl)ccc1[N+](=O)[O-] (stereo not given) — outcome?
A. inactive

Q. For CCNC(=O)NC(=O)C(C#N)=NOC , what call appears in the results of this test?
A. inactive

Q. Record lookup: outcome of this test for CS(=O)(=O)c1ccc(C(=O)C2C(=O)CCCC2=O)c([N+](=O)[O-])c1 ?
A. inactive

----------
- Test: CCTE_Shafer_MEA_acute_per_network_burst_spike_number_mean: CCTE's Neural Acute Assay for Average Number of Spikes in a Network Burst, Shafer Lab (AID 2284019)
Active and inactive are the calls of the source. The calls were made as follows: active = hit-call score of the fitted dose curve at least 0.9, where 1 is the maximum; inactive = score below 0.9.
Please state which outcome applies, choosing from 1 = active, -1 = inactive

- Compound: "N#Cc1c[nH]cc1-c1cccc2c1OC(F)(F)O2"
  Discrete Label: -1
- Compound: "CC1(C)CCC(=Cc2ccc(Cl)cc2)C1(O)Cn1cncn1 (configuration not stated)"
  Discrete Label: -1
- Compound: "Cc1ccc(N=CN(C)C=Nc2ccc(C)cc2C)c(C)c1"
  Discrete Label: 1
- Compound: "CCCC(=NOCC)C1=C(O)CC(CC(C)SCC)CC1=O (configuration not stated)"
  Discrete Label: 1
- Compound: "CN/C(=N\\[N+](=O)[O-])NCc1cnc(Cl)s1"
  Discrete Label: -1
- Compound: "N#CN=C1SCCN1Cc1ccc(Cl)nc1"
  Discrete Label: -1
- Compound: "CC1(C)C(C(=O)OC(C#N)c2cccc(Oc3ccccc3)c2)C1(C)C (configuration not stated)"
  Discrete Label: 1
- Compound: "CC(C)=CC1C(C(=O)OCc2coc(Cc3ccccc3)c2)C1(C)C (configuration not stated)"
  Discrete Label: -1

Q. I'd appreciate the recorded outcome for Clc1nc(Cl)nc(Nc2ccccc2Cl)n1 from this test.
A. -1

Q. Fill in: this test's call for COCC(=O)N(c1c(C)cccc1C)C(C)C(=O)OC (configuration not stated) is ___
A. -1

Q. # lookup: test call for CC1(C)C(C=C(Cl)Cl)C1C(=O)OC(C#N)c1cccc(Oc2ccccc2)c1 (configuration not stated)
A. -1

Q. Given Cc1nc(N(C)C)nc(OC(=O)N(C)C)c1C , state the outcome it received in this test.
A. -1

----------
- Read-out: Vascular cell adhesion molecule 1 (VCAM1), VCAM1 (gene 7412)
- Test: BSK_LPS_VCAM1: BioMAP Diversity Plus: LPS Assay for Vascular cell adhesion molecule 1 (VCAM1) Biomarker Activity (AID 2283086)
- Experimental Setup: primary human HUVEC with PBMC; actives raise or lower the signal
Calls of active or inactive are those of the source. The calls were made as follows: active = hit-call score of the fitted dose curve at least 0.9, where 1 is the maximum; inactive = score below 0.9.
Use one of these outcomes when replying: TRUE for active, FALSE for inactive

Worked examples, 10 molecules total:
- Molecule: "CNC(=O)N(C)c1nnc(C(C)(C)C)s1"
  Discrete Label: "FALSE"
- Molecule: "Clc1cccc(C(Cl)(Cl)Cl)n1"
  Discrete Label: "FALSE"
- Molecule: "COc1ccc(-c2ccccc2)cc1NNC(=O)OC(C)C"
  Discrete Label: "FALSE"
- Molecule: "O=c1n(Cl)c(=O)n(Cl)c(=O)n1Cl"
  Discrete Label: "FALSE"
- Molecule: "COP(=O)(OC)O/C(C)=C/C(=O)N(C)C"
  Discrete Label: "FALSE"
- Molecule: "CC1(C)CCC(=Cc2ccc(Cl)cc2)C1(O)Cn1cncn1 (configuration not stated)"
  Discrete Label: "FALSE"
- Molecule: "CCOc1cc(C(C)(C)C)ccc1C1COC(c2c(F)cccc2F)=N1 (configuration not stated)"
  Discrete Label: "TRUE"
- Molecule: "COc1cc(Cl)c(OC)cc1Cl"
  Discrete Label: "FALSE"
- Molecule: "CC(C)Nc1nc(Cl)nc(NC(C)C)n1"
  Discrete Label: "FALSE"
- Molecule: "O=C(O)c1c(Cl)ccc2cc(Cl)cnc12"
  Discrete Label: "FALSE"

Q. Answer briefly: the call reported for COC(=O)c1c(C(F)F)nc(C(F)(F)F)c(C2=NCCS2)c1CC(C)C in this assay.
A. FALSE

Q. Name the outcome recorded for C=CCOC(=O)C(C)(C)OC(=O)c1cc(-n2c(=O)cc(C(F)(F)F)n(C)c2=O)ccc1Cl in the assay.
A. FALSE

Q. How was CCSC(=O)N1CCCCCC1 classified in this test?
A. FALSE

Q. Could you check what this test reported for CC(C)Oc1cccc(NC(=O)c2ccccc2C(F)(F)F)c1 ?
A. FALSE

Q. Please state the recorded outcome for this molecule: CCOc1nc(C(Cl)(Cl)Cl)ns1
A. FALSE

Q. What outcome does the record of this test show for CCCCOCN(C(=O)CCl)c1c(CC)cccc1CC ?
A. TRUE

Q. Tell me the recorded outcome of this test for CCCCC(C#N)(Cn1cncn1)c1ccc(Cl)cc1 (configuration not stated) .
A. FALSE

----------
- Experimental System: Peroxisome proliferator-activated receptor gamma (Homo sapiens) (UniProt P37231)
- Sequence (P37231 whole entry, looked up): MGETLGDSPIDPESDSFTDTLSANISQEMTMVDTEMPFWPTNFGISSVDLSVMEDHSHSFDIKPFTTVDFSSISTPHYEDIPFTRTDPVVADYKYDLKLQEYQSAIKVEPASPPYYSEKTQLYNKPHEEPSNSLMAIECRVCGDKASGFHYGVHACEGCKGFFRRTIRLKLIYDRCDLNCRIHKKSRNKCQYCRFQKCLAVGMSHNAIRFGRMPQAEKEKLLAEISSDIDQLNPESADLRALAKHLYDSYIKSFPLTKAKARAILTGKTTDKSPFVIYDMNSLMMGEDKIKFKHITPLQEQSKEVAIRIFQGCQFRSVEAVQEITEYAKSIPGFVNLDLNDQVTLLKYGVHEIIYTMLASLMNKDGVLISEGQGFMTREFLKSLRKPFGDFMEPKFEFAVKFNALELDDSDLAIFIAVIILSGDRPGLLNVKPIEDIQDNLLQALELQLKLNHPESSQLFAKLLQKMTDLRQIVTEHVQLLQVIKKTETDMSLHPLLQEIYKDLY
- Test: OT_PPARg_PPARgSRC1_1440: Odyssey Thera (OT) 24-hour Protein-Complementation Assay for Peroxisome Proliferator-activated Receptor Gamma/ SRC-1 Co-activator (AID 2283388);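 further: nuclear to cytoplasmic ratio of reconstituted Venus YFP fluorescence in fixed imaged cells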
Calls of active or inactive are those of the source. How the source made its calls: active means hit-call score of the fitted dose curve at least 0.9, where 1 is the maximum; inconclusive means response in the unintended direction; inactive means score below 0.9.
Readout Name: outcome

Examples from the recorded data:
- Compound: "O=c1n(Cl)c(=O)n(Cl)c(=O)n1Cl"
  outcome: "inactive"
- Compound: "Cc1ccc(N=CN(C)C=Nc2ccc(C)cc2C)c(C)c1"
  outcome: "inactive"
- Compound: "COC(=O)NC(=S)Nc1ccccc1NC(=S)NC(=O)OC"
  outcome: "inactive"
- Compound: "CC(C)C1(C)N=C(c2ncccc2C(=O)O)NC1=O (stereo not drawn)"
  outcome: "inactive"
- Compound: "COCC(=O)N(c1c(C)cccc1C)C(C)C(=O)OC (stereo not drawn)"
  outcome: "inactive"

Q. // outcome lookup, key: COP(=S)(OC)Oc1ccc([N+](=O)[O-])c(C)c1
A. inactive

Q. What measured outcome goes with Nc1cnn(-c2ccccc2)c(=O)c1Cl ?
A. inactive

Q. What value of outcome has been reported for the following compound? CCN(CC)C(=O)C(C)Oc1cccc2ccccc12 (stereo not drawn)
A. inactive

Q. Which measured outcome value corresponds to Cn1c(-c2ccccc2)cc(-c2ccccc2)[n+]1C ?
A. inactive

Q. Fill blank: measured outcome of the compound CCCCC(O)(Cn1cncn1)c1ccc(Cl)cc1Cl (stereo not drawn) is ____.
A. inactive

Q. GET /values?readout=outcome&item= O=P(O)(O)CCCl
A. inactive

Q. Which outcome value is on record for COP(=S)(OC)SCn1nnc2ccccc2c1=O ?
A. inactive

Q. Item CCOc1nc(F)cc2nc(S(=O)(=O)Nc3c(Cl)cccc3Cl)nn12 has what recorded outcome?
A. inactive

----------
- Read-out: xenobiotic metabolism (CYP1A2), CYP1A2 (gene 1544)
- Test: CLD_CYP1A2_24hr: CellzDirect (CLD) Gene Expression Assay for xenobiotic metabolism (CYP1A2) at 24 hours (AID 2283683)
Inconclusive results are not listed. Activity calls are given as the source filed them. The calls were made as follows: active = hit-call score of the fitted dose curve at least 0.9, where 1 is the maximum; inconclusive = response in the unintended direction; inactive = score below 0.9.
Result category, one only: active, inactive

- Compound: "CCCCC(C#N)(Cn1cncn1)c1ccc(Cl)cc1 (stereo not given)"
  Discrete Label: "active"
- Compound: "COc1cc(OC)nc(NC(=O)NS(=O)(=O)c2ncccc2OCC(F)(F)F)n1"
  Discrete Label: "inactive"
- Compound: "COC(=O)N(C(=O)N1CO[C@@]2(C(=O)OC)Cc3cc(Cl)ccc3C2=N1)c1ccc(OC(F)(F)F)cc1"
  Discrete Label: "active"
- Compound: "Cc1cc(C)nc(Nc2ccccc2)n1"
  Discrete Label: "active"
- Compound: "COC(=O)NC(=S)Nc1ccccc1NC(=S)NC(=O)OC"
  Discrete Label: "active"
- Compound: "CS(=O)(=O)c1ccc(C(=O)C2C(=O)CCCC2=O)c([N+](=O)[O-])c1"
  Discrete Label: "inactive"
- Compound: "O=C(O)c1c(Cl)ccc2cc(Cl)cnc12"
  Discrete Label: "inactive"
- Compound: "CSC(=O)c1c(C(F)F)nc(C(F)(F)F)c(C(=O)SC)c1CC(C)C"
  Discrete Label: "active"
- Compound: "O=P(O)(O)CCCl"
  Discrete Label: "inactive"
- Compound: "CCC(C)n1c(=O)[nH]c(C)c(Br)c1=O (stereo not given)"
  Discrete Label: "active"

Q. Just curious, what result did CCN(CC)c1nc(C)cc(OP(=S)(OC)OC)n1 get here?
A. active

Q. Lab log entry: CNC(=O)N(C)c1nnc(C(C)(C)C)s1 — outcome as called in the assay?
A. inactive

Q. So what was the verdict on C=C(C)CN(CC)c1c([N+](=O)[O-])cc(C(F)(F)F)cc1[N+](=O)[O-] in this test?
A. inactive

Q. I'd appreciate the recorded outcome for N#Cc1c[nH]cc1-c1cccc2c1OC(F)(F)O2 from this test.
A. active

Q. Which outcome was entered for the compound Nc1c(Cl)c(Cl)nc(C(=O)O)c1Cl in this test?
A. active

Q. Entry O=c1n(Cl)c(=O)n(Cl)c(=O)n1Cl : call = ?
A. active

Q. What classification did COc1cc(Cl)c(OC)cc1Cl end up with in this test?
A. inactive

Q. Tell me the recorded outcome of this test for COC(=O)NS(=O)(=O)c1ccc(N)cc1 .
A. inactive

Q. State the result this test recorded for Cc1c(COC(=O)[C@@H]2[C@H](/C=C(\Cl)C(F)(F)F)C2(C)C)cccc1-c1ccccc1 .
A. active

Q. Entry O=C1C2CC=CCC2C(=O)N1SC(Cl)(Cl)Cl (stereo not given) : call = ?
A. inactive

Q. For Cc1nc(N(C)C)nc(OC(=O)N(C)C)c1C , which call appears in the assay record?
A. active

Q. Fill in: this test's call for Cc1ccc(N=CN(C)C=Nc2ccc(C)cc2C)c(C)c1 is ___
A. inactive

Q. Record lookup: outcome of this test for CCN(CC)C(=O)C(C)Oc1cccc2ccccc12 (stereo not given) ?
A. active

Q. Outcome? CC(C)Oc1cccc(NC(=O)c2ccccc2C(F)(F)F)c1
A. active

Q. Name the outcome recorded for CC(C)Nc1nc(Cl)nc(NC(C)C)n1 in the assay.
A. active

Each recorded value in this set is attributed to PubChem BioAssay (EPA / NIEHS).
